# recorded.conditions: 3.5 μmol per mouse oral gavage, 2 and 16 h
measure.name: original drug in the eye

CC1=C(/C=C/C(C)=C/C=C/C(C)=C/CNC(=O)[C@@H](N)Cc2ccccc2)C(C)(C)CCC1 [RF]
detected only at 2 h
CC1=C(/C=C/C(C)=C/C=C/C(C)=C/CNC(=O)[C@@H](N)CC(C)C)C(C)(C)CCC1 [RL]
detected only at 2 h
